The molecules listed here are annotated with their pIC50.
molecular target: pERK1/2 (Thr202/Tyr204), NCI-1H358 (KRAS G12C) (Homo sapiens, UniProt P01116, G12C); construct: pERK1/2 HTRF read-out; test: Assay of intracellular pERK1/2 (Thr202/Tyr204) phosphorylation in NCI-H358 cells (KRAS G12C); assay type: cell-based; details: read-out: NCI-H358 (KRAS G12C) IC50, pERK1/2, 2 days
Sequence (P01116 1-188 isoform P01116-2 G12C): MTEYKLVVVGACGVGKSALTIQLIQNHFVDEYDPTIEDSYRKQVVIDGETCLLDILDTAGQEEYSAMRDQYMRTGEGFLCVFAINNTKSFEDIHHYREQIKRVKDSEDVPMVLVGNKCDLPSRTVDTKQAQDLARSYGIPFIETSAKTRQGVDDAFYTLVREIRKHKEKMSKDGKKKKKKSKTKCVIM
pIC50: −log10 of the molar value.
Endpoint: pIC50

>>> data_value("CCc1c(F)ccc2cc(OC(=O)N3CCC3)cc(-c3nc4c5c(nc(OC[C@@]67CCCN6C[C@H](F)C7)nc5c3F)N(C(C)c3cccnc3N)[C@@H](C)CO4)c12 (stereo partly shown) [Compound 304]")
7.68
>>> data_value("CCc1c(F)ccc2cc(OC(=O)NC)cc(-c3nc4c5c(nc(OC[C@@]67CCCN6C[C@H](F)C7)nc5c3F)N(C(C)c3cccnc3N)[C@@H](C)CO4)c12 (stereo partly shown) [Compound 296]")
9.30
>>> data_value("CCNC(=O)Oc1cc(Cl)c(C2CC2)c(-c2nc3c4c(nc(OC[C@@]56CCCN5C[C@H](F)C6)nc4c2F)N(C(C)c2cccnc2N)[C@@H](C)CO3)c1 (stereo partly shown) [Compound 293]")
9.00

###

target: pERK1/2 (Thr202/Tyr204), NCI-1H358 (KRAS G12C) (Homo sapiens, UniProt P01116, G12C); construct: pERK1/2 HTRF read-out; experiment: Assay of intracellular pERK1/2 (Thr202/Tyr204) phosphorylation in NCI-H358 cells (KRAS G12C); format: cell-based; settings: pERK1/2, 2 days, read-out: NCI-H358 (KRAS G12C) IC50
pIC50: −log10 of the molar value.
The compounds listed here are annotated with their pIC50.
Endpoint: pIC50

>>> data_value("CC(c1cccnc1N)N1c2nc(OC[C@@]34CCCN3C[C@H](F)C4)nc3c(F)c(-c4c(F)cc(F)c5sc(N)nc45)nc(c23)OC[C@@H]1C (some centres unmarked)")
9.00
>>> data_value("[2H]C1([2H])CC[C@@]2(C([2H])([2H])Oc3nc4c5c(nc(-c6cc(N)c(F)c(C)c6C(F)(F)F)c(F)c5n3)OCCN4C(C)c3cccnc3N)C[C@@]([2H])(F)CN12 (single isomer, unassigned; diastereomer 1)")
10.00
>>> data_value("Cc1c(C(F)(F)F)c(-c2nc3c4c(nc(OC[C@@]56CCCN5C[C@H](F)C6)nc4c2F)N(C(C)c2cccnc2N)[C@@H](C)CO3)c2c(C)n[nH]c2c1F (some centres unmarked) [Compound 379]")
9.70
>>> data_value("Cc1cc(N)cc(-c2nc3c4c(nc(OC[C@@]56CCCN5CC5(CC5(F)F)C6)nc4c2F)N(C(C)c2cccnc2N)CCO3)c1C(F)(F)F (some centres unmarked)")
9.52
>>> data_value("[2H]C1([2H])CC[C@@]2(C([2H])([2H])Oc3nc4c5c(nc(-c6cc(N)cc(Cl)c6C(F)(F)F)c(F)c5n3)OCCN4C(C)c3cccnc3N)C[C@@H](F)CN12 (some centres unmarked)")
9.15

###

Target: pERK1/2 (Thr202/Tyr204), NCI-1H441 (KRAS G12V) (Homo sapiens, UniProt P01116, G12V)
Construct: pERK1/2 HTRF read-out
Sequence (P01116 1-188 isoform P01116-2 G12V): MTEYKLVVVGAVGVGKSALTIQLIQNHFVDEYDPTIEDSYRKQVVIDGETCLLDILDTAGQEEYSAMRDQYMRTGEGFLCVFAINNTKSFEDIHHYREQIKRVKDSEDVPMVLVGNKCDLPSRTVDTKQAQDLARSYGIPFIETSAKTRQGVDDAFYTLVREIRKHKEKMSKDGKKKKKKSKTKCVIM
Test: Assay of intracellular pERK1/2 (Thr202/Tyr204) phosphorylation in NCI-H441 cells (KRAS G12V)
Format: cell-based
Conditions: pERK1/2, 2 days, read-out: NCI-H441 (KRAS G12V) IC50
Source text: Example 2: Assay of intracellular pERK1/2 (Thr202/Tyr204)phosphorylation 1. […] Fluorescence ratio=fluorescence value665 nm/fluorescence value615 nm Inhibition rate (%)=100−((fluorescence ratio of compound well−fluorescence ratio of negative control well)/(fluorescence ratio of positive control well−fluorescence ratio of negative control well))×100 […]
Endpoint: IC50 (nM)

>>> data_value("CC(c1cccnc1N)N1c2nc(OC[C@@]34CCCN3C[C@H](F)C4)nc3c(F)c(-c4cc5[nH]ncc5cc4C(F)(F)F)nc(c23)OC[C@@H]1C (some centres unmarked)")
44
>>> data_value("Cc1c(C(F)(F)F)c(-c2nc3c4c(nc(OC[C@@]56CCCN5C[C@H](F)C6)nc4c2F)N(C(C)c2cccnc2N)[C@@H](C)CO3)c2c(Cl)n[nH]c2c1F (single isomer, unassigned) [Compound 382]")
5
>>> data_value("CC(c1cccnc1N)N1CCOc2nc(-c3cc(N)cc(Cl)c3C(F)(F)F)c(F)c3nc(OC[C@@]45CCCN4C[C@H](F)C5)nc1c23 (single isomer, unassigned) [Compound 71]")
0.4
>>> data_value("CC(c1cccnc1N)N1c2nc(OC[C@@]34CCCN3C[C@H](F)C4)nc3cc(-c4c5ccccc5cc5[nH]ncc45)nc(c23)OC[C@@H]1C (some centres unmarked)")
0.7
